# system.under.test: androgen receptor (AR-LBD) (Rattus norvegicus)
# Construct: 5 μL of 2×AR-LBD/Fluoromone AL Red Complex contained in the kit; purchased Invitrogen
# assay.info: Evaluation of androgen receptor affinity (PolarScreen Androgen Receptor Competitor Assay Kit, Red; fluorescence polarization)
# test.parameters: 22° C. for 5 hours, relative to binding rate of 1 μM DHT, read-out: AR affinity (pEC50) (converted)
# Method: Evaluation of an Androgen Receptor Affinity To examine the interaction of a compound with an androgen receptor, evaluation was carried out in accordance with the following procedure using PolarScreen™ Androgen Receptor Competitor Assay Kit, Red (Invitrogen). To 2 wells each of a 384 well black plate was added 5 μL of the compound solution. […] After 5 hours of the reaction, fluorescence polarization was measured and the affinity was evaluated. […]
metric: EC50 (nM)

Some compounds with known EC50 results, for comparison:
{"chemical.string": "CCc1oc(N(Cc2cc3ccccc3s2)c2ccc(C#N)cc2)nc1C(=O)NS(C)(=O)=O", "metric": "EC50", "observed.value": 15.8}
{"chemical.string": "COCCCS(=O)(=O)NC(=O)c1nc(N(CCc2ccc(C#N)cc2)Cc2ccc(Cl)cc2)sc1C", "metric": "EC50", "observed.value": 31.6}
{"chemical.string": "COCCCS(=O)(=O)NC(=O)c1nc(N(Cc2cc(OC(F)F)ccc2F)c2ccc(C#N)cc2)sc1C", "metric": "EC50", "observed.value": 31.6}

(1) Cc1sc(N(CCc2ccc(C#N)cc2)Cc2ccc(Cl)cc2)nc1C(=O)NS(=O)(=O)Cc1cccnc1
(2) CS(=O)(=O)NC(=O)c1nc(N(Cc2ccc(Cl)cn2)c2ccc(C#N)cc2)sc1C1CC1
Query string: 1 or 2 : whose EC50 is greater? Your answer should be the label of the entry you select.
Result string: 2

(I) COc1cccc(CCN(Cc2ccccc2)c2nc(C(=O)NS(C)(=O)=O)c(C)s2)c1
(II) Cc1sc(N(Cc2ncccc2O)c2ccc(C#N)cc2)nc1C(=O)NS(C)(=O)=O
(III) CCOC(=O)CS(=O)(=O)NC(=O)c1nc(N(Cc2ccccc2)c2ccc(C#N)cc2)sc1C
Query string: # rank by EC50, ascending (min first) Present the labels in the sequence the task asks for.
Result string: III, I, II

---

# system.under.test: androgen receptor (AR-LBD) (Rattus norvegicus)
# Construct: 5 μL of 2×AR-LBD/Fluoromone AL Red Complex contained in the kit; purchased Invitrogen
# assay.info: Evaluation of androgen receptor affinity (PolarScreen Androgen Receptor Competitor Assay Kit, Red; fluorescence polarization)
# test.parameters: 22° C. for 5 hours, relative to binding rate of 1 μM DHT, read-out: AR affinity (pEC50) (converted)
metric: EC50 (nM)

Some compounds with known EC50 results, for comparison:
{"compound": "Cc1sc(N(Cc2cccc(C(F)F)c2)c2ccc(C#N)cc2)nc1C(=O)NS(C)(=O)=O", "metric": "EC50", "u": "nM", "observed.value": 31.6}
{"compound": "Cc1sc(N(CCc2ccc3ccccc3c2)c2ccc(C#N)cc2)nc1C(=O)NS(C)(=O)=O", "metric": "EC50", "u": "nM", "observed.value": 316}
{"compound": "Cc1sc(N(Cc2cccc(OCCO)c2)c2ccc(C#N)cc2)nc1C(=O)NS(C)(=O)=O", "metric": "EC50", "u": "nM", "observed.value": 501}

(A) Cc1sc(N(Cc2nc3ccccc3[nH]2)c2ccc(C#N)cc2)nc1C(=O)NS(C)(=O)=O
(B) Cc1sc(N(Cc2ccc(Cl)cc2)[C@H]2C[C@@H]2c2ccccc2)nc1C(=O)NS(C)(=O)=O (racemic)
Query string: Min EC50? A | B Your answer should be the label of the entry you select.
Result string: B

---

# system.under.test: androgen receptor (AR-LBD) (Rattus norvegicus, UniProt P15207)
# Construct: 5 μL of 2×AR-LBD/Fluoromone AL Red Complex contained in the kit; purchased Invitrogen
# Sequence (P15207 651-882 limits assumed): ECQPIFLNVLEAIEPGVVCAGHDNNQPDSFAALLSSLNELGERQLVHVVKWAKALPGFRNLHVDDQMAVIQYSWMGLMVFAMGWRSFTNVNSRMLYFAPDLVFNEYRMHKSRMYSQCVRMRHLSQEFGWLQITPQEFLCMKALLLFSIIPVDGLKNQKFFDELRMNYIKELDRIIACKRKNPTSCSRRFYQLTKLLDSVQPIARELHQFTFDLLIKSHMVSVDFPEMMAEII
# assay.info: Evaluation of androgen receptor affinity (PolarScreen Androgen Receptor Competitor Assay Kit, Red; fluorescence polarization)
# test.parameters: 22° C. for 5 hours, relative to binding rate of 1 μM DHT, read-out: AR affinity (pEC50) (converted)
metric: EC50 (µM)

{"chemical.string": "Cc1oc(N(CCC2CCCC2)c2ccc(C#N)cc2)nc1C(=O)NS(C)(=O)=O", "EC50 [µM]": 0.0794}
{"chemical.string": "Cc1oc(N(CCc2ccc(Cl)cc2)Cc2ccc3ncsc3c2)nc1C(=O)NS(C)(=O)=O", "EC50 [µM]": 0.0398}

(I) Cc1sc(N(Cc2ccc(F)c(F)c2)c2ccc(C#N)cc2)nc1C(=O)NS(C)(=O)=O
(II) Cc1sc(N(CCc2ccc(S(C)(=O)=O)cc2)Cc2ccccc2)nc1C(=O)NS(C)(=O)=O
(III) Cc1sc(N(Cc2cccc(Oc3ccccc3)c2)c2ccc(C#N)cc2)nc1C(=O)NS(C)(=O)=O
Query string: Given 3 molecules, produce a descending ranking by EC50. Present the labels in the sequence the task asks for.
Result string: II, III, I

---

# system.under.test: androgen receptor (AR-LBD) (Rattus norvegicus, UniProt P15207)
# Construct: 5 μL of 2×AR-LBD/Fluoromone AL Red Complex contained in the kit; purchased Invitrogen
# assay.info: Evaluation of androgen receptor affinity (PolarScreen Androgen Receptor Competitor Assay Kit, Red; fluorescence polarization)
# test.parameters: 22° C. for 5 hours, relative to binding rate of 1 μM DHT, read-out: AR affinity (pEC50) (converted)
metric: EC50 (nM)

Some compounds with known EC50 results, for comparison:
{"compound": "COCCCS(=O)(=O)NC(=O)c1nc(N(CCc2ccc(C#N)cc2)Cc2ccc(OC(F)(F)F)cc2)sc1C [Compound 740]", "EC50, nM": 25.1}
{"compound": "CCc1oc(N(Cc2ccc(Br)cn2)c2ccc(C#N)cc2)nc1C(=O)NS(C)(=O)=O [Compound 636]", "EC50, nM": 398}
{"compound": "Cc1sc(N(CC2CCC3(CC2)CC3)c2ccc(C#N)cc2)nc1C(=O)NS(C)(=O)=O [Compound 489]", "EC50, nM": 79.4}
{"compound": "Cc1sc(N(CC2CCCCCC2)c2ccc(C#N)cc2)nc1C(=O)NS(C)(=O)=O [Compound 365]", "EC50, nM": 25.1}
{"compound": "CS(=O)(=O)NC(=O)c1nc(N(Cc2ccccc2)c2ccc(C#N)cc2)sc1C(F)(F)F [Example 230]", "EC50, nM": 126}
{"compound": "COCCCS(=O)(=O)NC(=O)c1nc(N(Cc2ccc(OC(F)F)c(F)c2)c2ccc(C#N)cc2)sc1C [Compound 526]", "EC50, nM": 39.8}

(A) COCCCS(=O)(=O)NC(=O)c1nc(N(Cc2ccc(OC(F)F)nc2)c2ccc(C#N)cc2)sc1C [Compound 525]
(B) COCCOc1ccc(CN(c2ccc(C#N)cc2)c2nc(C(=O)NS(C)(=O)=O)c(C)s2)cc1 [Compound 566]
(C) CS(=O)(=O)NC(=O)c1nc(N(Cc2ccc(Cl)cc2)c2ccc(C#N)cc2)sc1C1CC1 [Compound 661]
Query string: # rank by EC50, ascending (min first) Present the labels in the sequence the task asks for.
Result string: C, A, B
(C: 15.8 nM, A: 50.1 nM, B: 200 nM)

(1) Cc1sc(N(CCc2ccc3nccnc3c2)Cc2ccccc2)nc1C(=O)NS(C)(=O)=O [Compound 690]
(2) Cc1sc(N(CCc2ccc(C#N)cc2)Cc2ccc(OC(F)(F)F)cc2)nc1C(=O)NS(=O)(=O)Cc1ccncc1 [Compound 742]
(3) Cc1sc(N(Cc2cccc(N3CCCCC3)c2)c2ccc(C#N)cc2)nc1C(=O)NS(C)(=O)=O [Example 217]
(4) Cc1sc(N(Cc2ccc(-c3ccc(F)cc3)cn2)c2ccc(C#N)cc2)nc1C(=O)NS(C)(=O)=O [Compound 595]
Query string: Given 4 compounds, produce a descending ranking by EC50. Present the labels in the sequence the task asks for.
Result string: 1, 4, 3, 2
(1: 1000 nM, 4: 100 nM, 3: 50.1 nM, 2: 25.1 nM)

---

# system.under.test: human androgen receptor (Homo sapiens)
# Construct: expressed in transfected cells; host or cells: HEK293
# Sequence (P10275 whole entry): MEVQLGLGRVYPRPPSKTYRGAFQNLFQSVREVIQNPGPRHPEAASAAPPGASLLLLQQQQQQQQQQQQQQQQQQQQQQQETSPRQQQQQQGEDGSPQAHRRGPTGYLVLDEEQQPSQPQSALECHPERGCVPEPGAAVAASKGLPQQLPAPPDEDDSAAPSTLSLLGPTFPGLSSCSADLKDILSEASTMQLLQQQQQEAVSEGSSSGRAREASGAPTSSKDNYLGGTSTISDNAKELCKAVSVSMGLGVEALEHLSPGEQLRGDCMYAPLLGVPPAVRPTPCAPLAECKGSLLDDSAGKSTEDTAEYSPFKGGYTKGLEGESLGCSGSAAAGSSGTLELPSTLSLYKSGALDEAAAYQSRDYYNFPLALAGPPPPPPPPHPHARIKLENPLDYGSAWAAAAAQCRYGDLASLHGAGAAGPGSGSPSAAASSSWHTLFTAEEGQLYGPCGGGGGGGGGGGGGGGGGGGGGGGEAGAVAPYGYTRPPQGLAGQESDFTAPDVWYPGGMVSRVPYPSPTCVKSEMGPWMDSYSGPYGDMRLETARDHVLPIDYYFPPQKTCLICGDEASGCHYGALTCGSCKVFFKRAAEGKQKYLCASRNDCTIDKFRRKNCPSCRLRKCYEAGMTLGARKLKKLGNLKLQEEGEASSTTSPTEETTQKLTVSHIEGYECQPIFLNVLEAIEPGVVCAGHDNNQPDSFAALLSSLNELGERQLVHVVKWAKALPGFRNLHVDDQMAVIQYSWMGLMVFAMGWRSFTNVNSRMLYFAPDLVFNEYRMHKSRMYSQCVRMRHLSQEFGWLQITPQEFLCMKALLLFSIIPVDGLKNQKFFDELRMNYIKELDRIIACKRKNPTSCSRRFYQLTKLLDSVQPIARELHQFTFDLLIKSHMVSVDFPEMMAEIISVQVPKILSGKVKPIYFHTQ
# assay.info: Reporter assay of an androgen receptor responsive sequence (luciferase, transiently transfected HEK293 cells)
# Assay type: cell-based
# test.parameters: 24 hours incubation, relative to activity of 100 nM DHT, read-out: AR transcriptive activity (pEC50) (converted)
metric: EC50 (nM)

Some molecules with known EC50 results, for comparison:
{"molecule": "Cc1sc(N(Cc2ccc(OC(F)(F)F)cc2)c2ccc(C#N)cc2)nc1C(=O)NS(=O)(=O)CCCO", "EC50 / nM": 316}
{"molecule": "Cc1sc(N(CCc2ccc(Cl)cc2)Cc2nc(C3CC3)no2)nc1C(=O)NS(C)(=O)=O", "EC50 / nM": 501}
{"molecule": "COCCCS(=O)(=O)NC(=O)c1nc(N(Cc2ccc(Br)cn2)c2ccc(C#N)cc2)sc1C", "EC50 / nM": 200}

(A) CS(=O)(=O)NC(=O)c1nc(N(Cc2ccc(Cl)cc2)c2ccc(C#N)cc2)sc1Br
(B) COc1ccccc1CCN(c1ccc(C#N)cc1)c1nc(C(=O)NS(C)(=O)=O)c(C)s1
(C) Cc1sc(N(CC2CCCCC2)c2ccc(C#N)cc2)nc1C(=O)NS(C)(=O)=O
(D) CS(=O)(=O)NC(=O)c1nc(N(Cc2ccc(OC(F)(F)F)cc2)c2ccc(C#N)cc2)sc1Cl
(E) Cc1sc(N(Cc2ccc(OC(F)F)cn2)c2ccc(C#N)cc2)nc1C(=O)NS(C)(=O)=O
Query string: Given 5 molecules, produce a descending ranking by EC50. Present the labels in the sequence the task asks for.
Result string: B, C, E, D, A
(B: 6310 nM, C: 794 nM, E: 316 nM, D: 79.4 nM, A: 25.1 nM)

(I) Cc1sc(N(Cc2ccccc2)c2ccc3ncsc3c2)nc1C(=O)NS(C)(=O)=O
(II) COc1ccc(CN(c2ccc(C#N)cc2)c2nc(C(=O)NS(C)(=O)=O)c(C)s2)c(F)c1F
(III) CCc1oc(N(Cc2cc(F)cc(OC(F)F)c2)c2ccc(C#N)cc2)nc1C(=O)NS(C)(=O)=O
(IV) Cc1sc(N(Cc2ccccc2OC(F)F)c2ccc(C#N)cc2)nc1C(=O)NS(C)(=O)=O
Query string: # rank by EC50, ascending (min first) Present the labels in the sequence the task asks for.
Result string: II, IV, III, I
(II: 79.4 nM, IV: 251 nM, III: 631 nM, I: 1580 nM)

(P) Cc1sc(N(Cc2ncc(F)cc2Cl)c2ccc(C#N)cc2)nc1C(=O)NS(C)(=O)=O
(Q) Cc1sc(N(CC2CC3CCC2C3)c2ccc(C#N)cc2)nc1C(=O)NS(C)(=O)=O (stereo not shown)
Query string: P or Q : whose EC50 is greater? Your answer should be the label of the entry you select.
Result string: Q

Origin of the recorded values: patent US10689354B2
